Hey, just so you know, these numbers are from PubChem BioAssay AID1259407.

Tested on: CCRIS mutagenicity, Ames/micronucleus/aberration tests
Assay: CCRIS mutagenicity studies
Details: Test System: AMES SALMONELLA TYPHIMURIUM; Strain/Indicator: TA97; Metabolic Activation: RAT, LIVER, S-9, AROCLOR 1254; Method: STANDARD PLATE
Calls of active or inactive are those of the source. The rule behind the calls is not given here.
Valid outcomes are listed here; reply with one: active, inactive

Which outcome did this test record for the compound `Oc1ccc2ccc3c4c(cc5ccc1c2c53)[C@@H](O)[C@H](O)C=C4` ?
active

Same thing, different compound: `Cc1cc(O)c2c(c1)C(=O)c1cc(O)cc(O)c1C2=O`
active

Try this compound too: `ONc1ncnc2nc[nH]c12`
inactive

Continuing:
Lab log entry: `O=C1NC(=O)C(c2ccccc2)(c2ccccc2)N1` — outcome as called in the assay?
inactive

Another: `Oc1ccc2ccc3c4ccccc4cc4ccc1c2c43`
active

Now this one: `CN1CCC[C@H]1c1cccnc1`
inactive

Then what about the compound `ONc1ncnc2c1ncn2Cc1ccccc1` ?
active

Entry `ClC(Cl)Br` please
active

* * *

System: CCRIS mutagenicity, Ames/micronucleus/aberration tests
Assay: CCRIS mutagenicity studies
Details: Test System: AMES SALMONELLA TYPHIMURIUM; Strain/Indicator: TA98(NR); Metabolic Activation: NONE; Method: PREINCUBATION
Source text: The CCRIS database contains chemical records with carcinogenicity, mutagenicity, tumor promotion, and tumor inhibition test results. It was developed by the National Cancer Institute (NCI). Data are derived from studies cited in primary journals, current awareness tools, NCI reports, and other sources. Test results have been reviewed by experts in carcinogenesis and mutagenesis. CCRIS provides historical information from the years 1985 - 2011. It is no longer updated. […]
Activity calls are given as the source filed them. No rule for the calls is given here.
The reply should be one of these categories: 1 = active, -1 = inactive

These solved cases illustrate the format of a correct answer.
Lab log entry: `O=c1oc2ccc([N+](=O)[O-])c3ccc4cccc1c4c23` — outcome as called in the assay?
1

And the next one, `O=[N+]([O-])c1ccc(CNc2ncnc3c2ncn3[C@@H]2O[C@H](CO)[C@@H](O)[C@H]2O)cc1` ?
-1

Next: `CC(=O)Nc1ccc(Oc2ccc(N(O)C=O)cc2)cc1`
1

And then `O=c1oc2c([N+](=O)[O-])ccc3ccc4cccc1c4c32` , what is it?
1

How about `O=C(O)/C=C/c1ccc([N+](=O)[O-])cc1` ?
1

Next:
Any idea what this test logged for `Nc1ncnc2c1nc(-c1ccc([N+](=O)[O-])cc1)n2-c1ccc([N+](=O)[O-])cc1` ?
1

Similarly, `O=[N+]([O-])c1ccc2ccc3c4ccccc4c([N+](=O)[O-])c4ccc1c2c43` ?
1

Same again, this time with `O=C1NCCN1c1ncc([N+](=O)[O-])s1`
1

* * *

System: CCRIS mutagenicity, Ames/micronucleus/aberration tests
Experiment: CCRIS mutagenicity studies
Settings: Test System: AMES SALMONELLA TYPHIMURIUM; Strain/Indicator: TA98; Metabolic Activation: NONE
Calls of active or inactive are those of the source. How the calls were made is not given here.
Thanks in advance; please answer with one of these: 1 (yes) (active), 0 (no) (inactive)

Sample answers from the record:
Which result was noted for this molecule in the test: `CCOC(=O)N(C)C`
0 (no)

What do you get for COC(=O)C(N)Cc1ccc(Cl)cc1 (stereo not given) ?
0 (no)

Continue with CC(=O)N(CC(O)CO)c1c(I)c(C(=O)NCCO)c(I)c(C(=O)NCC(O)CO)c1I (stereo not given)
0 (no)

---
Hey, what did the test say about `COc1cccc2c1cc([N+](=O)[O-])c1c(C(=O)O)cc3c(c12)OCO3` ?
0 (no)

Request: `O=[N+]([O-])c1cc2ccc3cccc4ccc(c1)c2c34`
1 (yes)

Same thing, different molecule: `O=[N+]([O-])c1ccc2c3c(ccc([N+](=O)[O-])c13)-c1ccccc1-2`
1 (yes)

Then this molecule: `O=[N+]([O-])c1ccc(-c2ccccc2)cc1`
0 (no)

Try this molecule next: `Nc1ccccc1O`
0 (no)

* * *

Test system: CCRIS mutagenicity, Ames/micronucleus/aberration tests
Experiment: CCRIS mutagenicity studies
Settings: Test System: AMES SALMONELLA TYPHIMURIUM; Strain/Indicator: TA97; Metabolic Activation: NONE; Method: PREINCUBATION
Activity calls are given as the source filed them. The rule behind the calls is not given here.
Output constraint: value belongs to true (1) (active), false (0) (inactive)

Previously resolved entries follow.
What was the test verdict on `COc1ccccc1[N+](=O)[O-]` ?
false (0)

Request: `C=CC(=O)OC`
false (0)

What do we get for `NC(=O)c1ccccc1` ?
false (0)

CCCCCCCCC1OC1CCCCCCCC(=O)OCC(CC)CCCC (configuration not stated) ?
false (0)

Same read-out for `O=C1NCCN1c1ncc([N+](=O)[O-])s1` ?
true (1)

Lookup COC(=O)C(c1ccccc1)C1CCCCN1 (configuration not stated)
false (0)

Now examine the next entry.
I would be grateful if you could indicate the recorded call for `CCc1cn([C@H]2C[C@H](O)[C@@H](CO)O2)c(=O)[nH]c1=O` .
false (0)

* * *

Test system: CCRIS mutagenicity, Ames/micronucleus/aberration tests
Assay: CCRIS mutagenicity studies
Details: Test System: AMES SALMONELLA TYPHIMURIUM; Strain/Indicator: TA1537; Metabolic Activation: NONE; Method: STANDARD PLATE
Active and inactive are the calls of the source. How the calls were made is not given here.
Outcome (select one): active, inactive

What was the test verdict on `Cc1ccc(NCCO)cc1O` ?
inactive

// next record `CN(C)c1ccc(C(=C2C=CC(=[N+](C)C)C=C2)c2ccccc2)cc1`
inactive

* * *

Test system: CCRIS mutagenicity, Ames/micronucleus/aberration tests
Assay: CCRIS mutagenicity studies
Conditions: Test System: AMES SALMONELLA TYPHIMURIUM; Strain/Indicator: TA98(NR); Metabolic Activation: RAT, LIVER, S-9, AROCLOR 1254; Method: PREINCUBATION
The source made the active and inactive calls. The rule behind the calls is not given here.
QUANTITY MEASURED: mutagenic call

Form field: reported mutagenic call of `CC(=O)Nc1ccc(Oc2ccc(N(O)C=O)cc2)cc1`
active; positive

Please answer likewise for `O=c1oc2c([N+](=O)[O-])ccc3ccc4cccc1c4c32`
active; positive

Continue with `O=C(O)/C=C/c1ccc([N+](=O)[O-])cc1`
active; positive

`O=c1oc2ccc([N+](=O)[O-])c3ccc4cccc1c4c23` ?
active; positive

Next:
I would be grateful if you could share the reported mutagenic call for `O=C1NCCN1c1ncc([N+](=O)[O-])s1` .
active; positive

* * *

Tested on: CCRIS mutagenicity, Ames/micronucleus/aberration tests
Assay: CCRIS mutagenicity studies
Details: Test System: AMES SALMONELLA TYPHIMURIUM; Strain/Indicator: TA100; Metabolic Activation: NONE; Method: PREINCUBATION
Calls of active or inactive are those of the source. No rule for the calls is given here.
Allowed answers: t for active, f for inactive

Examples with answers:
Hi team, can someone confirm the assay call for `O=c1ccn([C@H]2C[C@H](O)[C@@H](CO)O2)c(=O)[nH]1` ?
f

Same for `Nc1cc(Cl)c([N+](=O)[O-])cc1O`
f

One more molecule: `COc1cccc([N+](=O)[O-])c1`
f

Input CCCCC(CC)COC(=O)c1ccc(C(=O)OCC(CC)CCCC)c(C(=O)OCC(CC)CCCC)c1 (centres undefined)
f

Okay, now this molecule:
Recorded call for `O=c1c2[nH]c3ccccc3c2nnn1/N=C/c1ccc(O)cc1` ?
t

* * *

System: CCRIS mutagenicity, Ames/micronucleus/aberration tests
Assay: CCRIS mutagenicity studies
Details: Test System: AMES SALMONELLA TYPHIMURIUM; Strain/Indicator: TA98; Metabolic Activation: NONE; Method: PREINCUBATION
Active and inactive are the calls of the source. How the calls were made is not given here.
Use one of these outcomes when replying: yes = active, no = inactive

Please review the following examples before continuing.
So what was the verdict on `NCCCN1CCN(CCCN)CC1` in this test?
no

Also check `O=S1(=O)CCCC1`
no

One more compound: `O=C1c2c(Br)c(Br)c(Br)c(Br)c2C(=O)N1CCN1C(=O)c2c(Br)c(Br)c(Br)c(Br)c2C1=O`
no

Same read-out for CCCCCCCOc1ccccc1NC(=O)OC(C)CN(CC)CC (stereo not drawn) ?
no

Please give the result for `Nc1ccccc1Cl` too.
no

Please examine the following record next.
For `O=[N+]([O-])c1ccc(N=N/C(=N\Nc2ccc(I)cc2)c2ccccc2)cc1` , which call appears in the assay record?
no

* * *

System: CCRIS mutagenicity, Ames/micronucleus/aberration tests
Assay: CCRIS mutagenicity studies
Settings: Test System: AMES SALMONELLA TYPHIMURIUM; Strain/Indicator: TA1537; Metabolic Activation: S-9; Method: STANDARD PLATE
Active and inactive are the calls of the source. How the calls were made is not given here.
QUANTITY MEASURED: mutagenic call

Under CCRIS mutagenicity, Ames/micronucleus/aberration tests: mutagenic call value of `O=C(Nc1snc2ccccc12)c1ccccc1` ?
inactive; negative

And then `Nc1snc2cc(Cl)ccc12` , what is it?
active; positive

How about `CN1CC[C@@]2(C)c3cc(O)ccc3N(C)[C@@H]12` ?
inactive; negative

Repeat for the following compound: `CCCCNc1snc2ccccc12`
inactive; negative

One more compound: `COC(=O)c1ccc(C(=O)OC)cc1`
inactive; negative

What do you have for `CC(C)CN(C(=O)CCCl)c1snc2ccccc12` ?
inactive; negative

***
Find the measured mutagenic call: item `COc1cccc2c1cc([N+](=O)[O-])c1c(C(=O)O)cc3c(c12)OCO3` , target or system CCRIS mutagenicity, Ames/micronucleus/aberration tests.
active; positive

// same read-out, input: `N=c1ccn2c(n1)O[C@H]1[C@H](O)[C@@H](CO)O[C@H]12`
inactive; negative

Now consider `Cc1ccc2nsc(NC(=O)C(Cl)(Cl)Cl)c2c1` and answer again.
inactive; negative

Subsequent entry: `CCN(C(=O)CCCCl)c1snc2ccccc12`
inactive; negative

Now consider CCC(CCOCn1cc[n+](C)c1/C=N/O)[N+](=O)[O-] (configuration not stated) and answer again.
inactive; negative

Same read-out for `O=C(Nc1ccccc1)Nc1snc2ccccc12` ?
inactive; negative
